Source of measurements: patent US6403602B1

Each record here notes measured Guinea Pig Ileum DR with Nor-BNI.
System Tested: kappa receptors (Cavia porcellus); note: test concentration or dose not given here
Construct: The longitudinal muscle with the myenteric plexus attached was gently separated from the underlying circular muscle; from tissue; host or cells: guinea pig ileum longitudinal muscle with myenteric plexus
Sequence (P41144 whole entry): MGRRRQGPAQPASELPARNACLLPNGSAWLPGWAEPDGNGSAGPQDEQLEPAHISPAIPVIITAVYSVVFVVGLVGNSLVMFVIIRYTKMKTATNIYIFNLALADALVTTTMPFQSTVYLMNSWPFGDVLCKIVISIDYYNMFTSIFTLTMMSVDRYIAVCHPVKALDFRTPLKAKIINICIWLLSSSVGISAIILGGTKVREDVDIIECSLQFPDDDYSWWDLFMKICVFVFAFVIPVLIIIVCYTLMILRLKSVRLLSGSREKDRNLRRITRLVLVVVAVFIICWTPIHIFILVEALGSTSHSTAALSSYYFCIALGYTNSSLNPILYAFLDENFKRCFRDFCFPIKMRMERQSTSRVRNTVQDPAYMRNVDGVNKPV
Format: cell-based, guinea pig
Could you keep your reply to the number by itself?

Past entries and their recorded results:
[
  {
    "Compound": "CC(C)C[C@@H](NC(=O)[C@H](Cc1ccccc1)NC(=O)CNC(=O)[C@@H](C)NC(=O)[C@@H](N)Cc1ccc(O)cc1)C(=O)O [DADLE-OH]",
    "System Tested": "kappa receptors (Cavia porcellus)",
    "Guinea Pig Ileum DR with Nor-BNI": 1.53
  },
  {
    "Compound": "COc1ccc2c3c1O[C@H]1C(=O)CC[C@@]4(O)[C@@H](C2)N(C)CC[C@]314 [Oxycodone]",
    "System Tested": "kappa receptors (Cavia porcellus)",
    "Guinea Pig Ileum DR with Nor-BNI": 1.45
  }
]

Please look at the following compound next.
Recorded Guinea Pig Ileum DR with Nor-BNI of CCC(=O)Oc1ccc2c3c1O[C@H]1[C@@H](OS(=O)(=O)O)C=C[C@H]4[C@@H](C2)N(C)CC[C@@]341 [NIDA # 20,270, 3-O-Propionylmorphine-6-O-sulfate] , please.
1.26
